System: eotaxin
assay_procedure: Eotaxin assay: enzyme immunoassay of TNF-α and IL-4 induced eotaxin expression in BEAS-2B cells
Format: cell-based
conditions: Homo sapiens, TNF 10 ng/ml + IL-4, approximately 16 hours
readout_label: pIC50
Would you please state pIC50, meaning minus log10 of the concentration in mol/L, as a bare number?

[Q] # query: pIC50 of entry COC(=O)CCCSC(=S)NCC1CCCO1 (stereo not shown) [NDE]
[A] 5.22

###

Some compounds, each annotated with its measured IC50.
Tested on: VCAM-1
assay_procedure: VCAM-1 assay: enzyme immunoassay of TNF-α induced VCAM-1 expression in endothelial cells
Type: cell-based, Human
conditions: HAEC, TNF-α 1 ng/ml, approximately 16 hours; read-out: VCAM-1 IC50
Field: numeric (µM). Do not append units.

NC(CSC(=S)NCc1ccccc1)C(=O)O (centres unmarked): 7

[Q] # query: IC50 of entry CCOC(=O)CCCNC(=S)SCC1CCCO1 (centres unmarked)
[A] 5
